Provenance of the data: ChEMBL document CHEMBL3507680

Quick reference: cytotoxicity at 70.5 h of the listed items.
- assay_overview: Human HepG2 cell viability assay in 384 well format
- Type: toxicity, cell-based
- Set-up: dose 125 nL, time 70.5 hour; concentration not given beside the values
- setup_conditions: HepG2 cells, read-out: Inhibition

Example entries and their recorded answers appear below.
Cc1cccc(C(=O)NC2CCN(c3cnn(C)c3)C2=O)n1 (centres undefined) = 12.5%
CN(CCCc1cnn(C)c1)Cc1cc2n(n1)CCNC2 = -4.75%

Request: Quick one: cytotoxicity at 70.5 h for `CC(C)N(C)Cc1nnc2n1CCCN(c1ncccn1)C2` ?
Result: -2.54%

Request: Quick one: cytotoxicity at 70.5 h for `CCN1CC[C@@]2(C(=O)N3CCCC3)CCN(S(C)(=O)=O)CC[C@@H]12` ?
Result: -8.95%

---

- assay_overview: Human HepG2 cell viability assay in 384 well format
- Format: toxicity, cell-based
- Design: dose 125 nL, time 70.5 hour; concentration not given beside the values
- setup_conditions: HepG2 cells, read-out: Inhibition
Quick reference: cytotoxicity at 70.5 h of the listed items.
A number alone suffices; assume %.

COC[C@@H]1CC[C@H]2[C@H](CCN2S(=O)(=O)c2ccc(F)cc2)O1 = -28.6
CCC(c1ccc(F)cc1F)N1CCN(CCO)CC1 (configuration not stated) = -6.18

Now take the following compound into account.
Request: Quick one: cytotoxicity at 70.5 h for CC(=O)NCC(=O)N1CCOC2(CCCN(c3ccc(C)nn3)C2)C1 (configuration not stated) ?
Result: -11.9

---

- assay_overview: Human HepG2 cell viability assay in 384 well format
- Assay type: toxicity, cell-based
- Design: dose 125 nL, time 70.5 hour; concentration not given beside the values
- setup_conditions: HepG2 cells, read-out: Inhibition
reported_property: cytotoxicity at 70.5 h (%)
A number alone suffices; assume %.

Request: Quick one: cytotoxicity at 70.5 h for CC(CC#N)N(C)Cc1ccc(F)cc1F (configuration not stated) ?
Result: -6.44

---

- assay_overview: Human HepG2 cell viability assay in 384 well format
- Assay type: toxicity, cell-based
- Set-up: dose 125 nL, time 70.5 hour; concentration not given beside the values
- setup_conditions: HepG2 cells, read-out: Inhibition
reported_property: cytotoxicity at 70.5 h (%)
A number alone suffices; assume %.

Example entries and their recorded answers appear below.
CCCn1ccnc1CN1C[C@@H](CN2CCCCC2)[C@@H](CO)C1 = -2.74
c1ccc(CN2CCOC3CNCC[C@H]32)cc1 (stereo partly drawn) = 13.7
Cc1ccc(-n2cnnn2)cc1NCC(=O)Nc1cc(F)ccc1F = -66.2
CS(=O)(=O)NCc1ccc(NC(=O)CC2=CCCCC2)cc1 = -0.966
CN(C)c1cc2c(nn1)CCN(C(=O)c1cc3ccccc3[nH]c1=O)C2 = -15.9
CCCC(Cn1cnc(-c2ccccc2)c1-c1cncn1CC)N(C)C (stereo not drawn) = -0.815
COCC1CC2(CCN(CC3CC3)CC2)CN1Cc1ccccn1 (stereo not drawn) = -2.19
Cc1ncccc1NC(=O)[C@@H]1CCO[C@@H]2CCN(c3ccccc3)C[C@@H]21 = -3.01

Request: Quick one: cytotoxicity at 70.5 h for COCCOc1cccc(C(=O)N2CCCCC2c2nccs2)c1 (stereo not drawn) ?
Result: -3.68

Request: Quick one: cytotoxicity at 70.5 h for `c1cncc(OCc2nnn3c2CN(Cc2ccsc2)CCC3)c1` ?
Result: -11.8
